Cited source for all entries: the supplement of paper PMC10567573

B1: KRT33B (parent)
chain: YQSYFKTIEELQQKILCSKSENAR

# Variants of: B1
# Assay overview: protein stability index of a GFP-peptide fusion (GPS, HEK-293T) (PSI 1-6); higher = more stable;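 also: lentivirally expressed fusions sorted by FACS into six bins by GFP to DsRed ratio, PSI derived from sequencing read proportions per bin multiplied by bin number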
# Cond: c terminus: a fixed tail appended

[
  {
    "Variant name": "E10T",
    "protein stability index": 1.87
  },
  {
    "Variant name": "S18F",
    "protein stability index": 1.68
  },
  {
    "Variant name": "E9N",
    "protein stability index": 2.69
  },
  {
    "Variant name": "I15N",
    "protein stability index": 1.85
  },
  {
    "Variant name": "S3I",
    "protein stability index": 1.67
  },
  {
    "Variant name": "T7E",
    "protein stability index": 2.31
  },
  {
    "Variant name": "Q2P",
    "protein stability index": 2.77
  },
  {
    "Variant name": "R24K",
    "protein stability index": 1.84
  },
  {
    "Variant name": "S18M",
    "protein stability index": 2.18
  },
  {
    "Variant name": "Y4V",
    "protein stability index": 2.19
  },
  {
    "Variant name": "E9T",
    "protein stability index": 2.12
  },
  {
    "Variant name": "L11M",
    "protein stability index": 1.6
  },
  {
    "Variant name": "L16I",
    "protein stability index": 2.14
  },
  {
    "Variant name": "F5E",
    "protein stability index": 3.79
  },
  {
    "Variant name": "I8T",
    "protein stability index": 1.63
  },
  {
    "Variant name": "Q2G",
    "protein stability index": 2.14
  },
  {
    "Variant name": "N22I",
    "protein stability index": 1.71
  },
  {
    "Variant name": "Q2S",
    "protein stability index": 2.22
  },
  {
    "Variant name": "L11K",
    "protein stability index": 1.42
  },
  {
    "Variant name": "C17A",
    "protein stability index": 2.16
  },
  {
    "Variant name": "T7H",
    "protein stability index": 2.31
  },
  {
    "Variant name": "Q13E",
    "protein stability index": 1.81
  },
  {
    "Variant name": "R24A",
    "protein stability index": 1.94
  },
  {
    "Variant name": "Y1F",
    "protein stability index": 1.93
  },
  {
    "Variant name": "N22C",
    "protein stability index": 2.3
  },
  {
    "Variant name": "K19S",
    "protein stability index": 1.78
  },
  {
    "Variant name": "Q13S",
    "protein stability index": 1.86
  },
  {
    "Variant name": "Y4M",
    "protein stability index": 2.11
  },
  {
    "Variant name": "K19F",
    "protein stability index": 1.7
  },
  {
    "Variant name": "L11C",
    "protein stability index": 1.53
  },
  {
    "Variant name": "I8Q",
    "protein stability index": 2.06
  },
  {
    "Variant name": "L16R",
    "protein stability index": 2.49
  },
  {
    "Variant name": "S20T",
    "protein stability index": 1.87
  },
  {
    "Variant name": "Y1N",
    "protein stability index": 3.72
  },
  {
    "Variant name": "Q2H",
    "protein stability index": 2.01
  },
  {
    "Variant name": "I15Y",
    "protein stability index": 1.73
  },
  {
    "Variant name": "K14N",
    "protein stability index": 1.7
  },
  {
    "Variant name": "A23T",
    "protein stability index": 2.27
  },
  {
    "Variant name": "Q2L",
    "protein stability index": 2.46
  },
  {
    "Variant name": "F5S",
    "protein stability index": 2.81
  },
  {
    "Variant name": "Y1D",
    "protein stability index": 4.28
  },
  {
    "Variant name": "L11A",
    "protein stability index": 2.41
  },
  {
    "Variant name": "A23M",
    "protein stability index": 2.11
  },
  {
    "Variant name": "I8V",
    "protein stability index": 2.19
  },
  {
    "Variant name": "K6G",
    "protein stability index": 1.5
  },
  {
    "Variant name": "F5T",
    "protein stability index": 2.59
  },
  {
    "Variant name": "I15D",
    "protein stability index": 2.05
  },
  {
    "Variant name": "L16N",
    "protein stability index": 1.84
  },
  {
    "Variant name": "E10Y",
    "protein stability index": 2.52
  },
  {
    "Variant name": "Q13T",
    "protein stability index": 2.23
  },
  {
    "Variant name": "E21M",
    "protein stability index": 2.13
  },
  {
    "Variant name": "L11S",
    "protein stability index": 1.84
  },
  {
    "Variant name": "A23K",
    "protein stability index": 1.76
  },
  {
    "Variant name": "L16A",
    "protein stability index": 2.13
  },
  {
    "Variant name": "K6S",
    "protein stability index": 2.59
  },
  {
    "Variant name": "K6Y",
    "protein stability index": 2.55
  },
  {
    "Variant name": "C17N",
    "protein stability index": 1.95
  },
  {
    "Variant name": "K6Q",
    "protein stability index": 1.64
  },
  {
    "Variant name": "E9Y",
    "protein stability index": 2.33
  },
  {
    "Variant name": "R24Y",
    "protein stability index": 1.3
  },
  {
    "Variant name": "K14S",
    "protein stability index": 1.97
  },
  {
    "Variant name": "S20A",
    "protein stability index": 2.02
  },
  {
    "Variant name": "K6R",
    "protein stability index": 1.11
  },
  {
    "Variant name": "T7G",
    "protein stability index": 1.8
  },
  {
    "Variant name": "A23Y",
    "protein stability index": 1.64
  },
  {
    "Variant name": "E10H",
    "protein stability index": 1.65
  },
  {
    "Variant name": "Y1C",
    "protein stability index": 2.69
  },
  {
    "Variant name": "Q13L",
    "protein stability index": 2.2
  },
  {
    "Variant name": "Y4E",
    "protein stability index": 1.88
  },
  {
    "Variant name": "L11G",
    "protein stability index": 2.02
  },
  {
    "Variant name": "Q2M",
    "protein stability index": 2.65
  },
  {
    "Variant name": "R24H",
    "protein stability index": 1.71
  },
  {
    "Variant name": "Q12M",
    "protein stability index": 1.53
  },
  {
    "Variant name": "K19V",
    "protein stability index": 1.7
  },
  {
    "Variant name": "A23S",
    "protein stability index": 2.21
  },
  {
    "Variant name": "Q13I",
    "protein stability index": 1.35
  },
  {
    "Variant name": "K6L",
    "protein stability index": 1.77
  },
  {
    "Variant name": "I15T",
    "protein stability index": 1.81
  },
  {
    "Variant name": "Q12E",
    "protein stability index": 2.6
  },
  {
    "Variant name": "K14F",
    "protein stability index": 2.02
  },
  {
    "Variant name": "E9C",
    "protein stability index": 1.79
  },
  {
    "Variant name": "S18V",
    "protein stability index": 1.73
  },
  {
    "Variant name": "L16E",
    "protein stability index": 1.73
  },
  {
    "Variant name": "S18D",
    "protein stability index": 1.9
  },
  {
    "Variant name": "K14H",
    "protein stability index": 2.28
  }
]
